system: SK-MEL-5; assay: NCI tumour cell line growth inhibition, 48 h
Active and inactive are the calls of the source. No stated cut-off is given here; in the data, active = GI50 up to about 1.1 µM and inactive = higher.
Classes used: active, inactive

[[record]]
molecule = "CN(Cc1cc(Cl)c(Cl)cc1NC(=O)CN)[C@H]1CCCC[C@@H]1N1CCCC1"
label_value = "inactive"

[[record]]
molecule = "N=C(N)Nc1ncccc1[N+](=O)[O-]"
label_value = "inactive"

[[record]]
molecule = "CN1C(=O)[C@@]2(C=CC3(CC2)OCCO3)c2ccccc21"
label_value = "inactive"

[[record]]
molecule = "O=C(CNc1ccc(Cl)cc1)Nn1c(-c2ccccc2)nc2ccccc2c1=O"
label_value = "inactive"

[[record]]
molecule = "Cc1ccc(S(=O)(=O)C(C#N)c2nc3ccccc3nc2N2CCOCC2)cc1 (stereo not given)"
label_value = "inactive"

[[record]]
molecule = "CCOC(=O)/C(C(=O)c1ccc([N+](=O)[O-])cc1)=C(\\NS(=O)(=O)c1cc(C)c(Cl)cc1[S-])[n+]1ccc(N(C)C)cc1"
label_value = "inactive"

[[record]]
molecule = "C#CCn1c(=O)c2cccnc2n(CC#C)c1=O"
label_value = "inactive"

[[record]]
molecule = "COC1OC(C)C2OC(C)(C)OC2C1OC(C)=O (stereo not given)"
label_value = "inactive"

[[record]]
molecule = "CC(=O)O[C@H]1C(=O)[C@@]2(C)[C@H]([C@H](OC(=O)c3ccccc3)[C@]3(O)C[C@H](OC(=O)[C@H](O)[C@@H](NC(=O)C(C)(O)C(C)O)c4ccccc4)C(C)=C1C3(C)C)[C@]1(OC(C)=O)CO[C@@H]1C[C@@H]2O (stereo not given in full)"
label_value = "active"

[[record]]
molecule = "O=C(O)CSc1ccccc1C(=O)O"
label_value = "inactive"

[[record]]
molecule = "COc1cc(CC2C(=O)OCC2[C@@H](OC(C)=O)c2ccc3c(c2)OCO3)c(Br)c(OC)c1OC (stereo not given in full)"
label_value = "inactive"

[[record]]
molecule = "CCCCc1ccc(-n2sc3ncc(C)cc3c2=O)cc1"
label_value = "inactive"

[[record]]
molecule = "COc1ccc2c(=O)c3ccoc3[nH]c2c1"
label_value = "inactive"

[[record]]
molecule = "COC(=O)c1c(O)ccc2c1c1c(n2Cc2ccc(Cl)cc2Cl)C(=O)c2ccccc2C1=O"
label_value = "inactive"

[[record]]
molecule = "C(=N/Nc1ccc(-c2nc3ccccc3[nH]2)cc1)/c1c(-c2ccccc2)[nH]c2ccccc12"
label_value = "active"

[[record]]
molecule = "O=C1C(Cl)=C(NCCF)C(=O)c2ncccc21"
label_value = "active"

[[record]]
molecule = "CC1(C)C(O)OC(O)C1(C)C (stereo not given)"
label_value = "inactive"

[[record]]
molecule = "Cc1cccc2c(=O)c3cccc([C@@H](C)C(=O)O)c3oc12"
label_value = "inactive"

[[record]]
molecule = "Oc1cc(CN2COc3ccccc32)c(O)cc1CNC1CCCCC1"
label_value = "inactive"

[[record]]
molecule = "COc1ccc(C2c3cc4c(cc3OC(NNS(=O)(=O)c3ccc(C)cc3)C2C)OCO4)cc1 (stereo not given)"
label_value = "inactive"

[[record]]
molecule = "N/N=C(\\c1nc2ccc(Cl)cc2nc1O)C(O)c1ccc(Cl)c(Cl)c1 (stereo not given)"
label_value = "inactive"

[[record]]
molecule = "O=C1C(=Cc2cccs2)C(=O)N(CCc2ccccc2)S(=O)(=O)N1CCc1ccccc1"
label_value = "inactive"

[[record]]
molecule = "NNC(=O)C(=O)N/N=C1\\CCCC1C(=O)CCC(=O)Nc1cccc(Cl)c1 (stereo not given)"
label_value = "inactive"

[[record]]
molecule = "O=[N+]([O-])c1cc(Cl)ccc1S(=O)(=O)c1cc(Cl)cc2c1NCCC2"
label_value = "inactive"

[[record]]
molecule = "C=C1C(C(O)C[C@H](C)C2O[C@@]3(CCCCO3)CCC2C)O[C@@H]2CCC3(CCC(/C=C/[C@@H](C)C4CC(C)=CC5(O4)O[C@H](C[C@](C)(O)C(=O)O)CCC5O)O3)OC2[C@@H]1O (stereo not given in full)"
label_value = "active"

